system: taenia coli of guinea pigs, depolarized, stimulated with CaCl2; experiment: Antagonistic activity to calcium in the taenia coli of guinea pigs (in vitro); assay type: cell-based, Hartley albino guinea pigs; details: Cavia porcellus; taenia coli, CaCl2 10^-3 M, ten minutes contact; from maximum percentage of inhibition (for 0265B, 0246B, 0247B, 0270B, 0224A independent of time of appearance); read-out: Ca--antagonistic activity in vitro ED50
pIC50: −log10 of the molar value.
Form field: pIC50 (one value per entry).

compound	pIC50
COC(=O)C1=C(C)NC(C)=C(C(C)=NO)C1c1cccc([N+](=O)[O-])c1 (centres unmarked) [0227A]	6.57
COC(=O)C1=C(C)NC(C)=C(C(C)=NOC(C)C)C1c1cccc([N+](=O)[O-])c1 (centres unmarked) [0265B]	8.36
CCON=C(C)C1=C(C)NC(C)=C(C(=O)OC)C1c1cccc([N+](=O)[O-])c1 (centres unmarked) [0235A]	8.13
CON=C(C)C1=C(C)NC(C)=C(C(=O)OC)C1c1cccc([N+](=O)[O-])c1 (centres unmarked) [0251A]	7.59
COC(=O)C1=C(C)NC(C)=C(C(=O)OCCN(C)Cc2ccccc2)C1c1cccc([N+](=O)[O-])c1 (centres unmarked) [Nicardipine, reference compound]	8.64
COC(=O)C1=C(C)NC(C)=C(C(C)=NOC2CCCC2)C1c1cccc([N+](=O)[O-])c1 (centres unmarked) [0270B]	8.25
CCCCON=C(C)C1=C(C)NC(C)=C(C(=O)OC)C1c1cccc([N+](=O)[O-])c1 (centres unmarked) [0246B]	8.15
CCOC(=O)C1=C(C)NC(C)=C(C(=O)OC)C1c1cccc([N+](=O)[O-])c1 (centres unmarked) [Nitrendipine, reference compound]	8.72

---

experiment: in vivo; conditions: mouse, iv

compound	LD50 at 168 h, mg/kg
COC(=O)C1=C(C)NC(C)=C(C(C)=NOCCN(C)Cc2ccccc2)C1c1cccc([N+](=O)[O-])c1 (stereo not shown) [0224A]	3.3
CCCCON=C(C)C1=C(C)NC(C)=C(C(=O)OC)C1c1cccc([N+](=O)[O-])c1 (stereo not shown) [0246B]	37.5
COC(=O)C1=C(C)NC(C)=C(C(=O)OCCN(C)Cc2ccccc2)C1c1cccc([N+](=O)[O-])c1 (stereo not shown) [Nicardipine, reference compound]	17.4
COC(=O)C1=C(C)NC(C)=C(C(C)=NOCCN2CCCCC2)C1c1cccc([N+](=O)[O-])c1 (stereo not shown) [0276B]	22.7
COC(=O)C1=C(C)NC(C)=C(C(C)=NOC(C)C)C1c1cccc([N+](=O)[O-])c1 (stereo not shown) [0265B]	27.6
CCON=C(C)C1=C(C)NC(C)=C(C(=O)OC)C1c1cccc([N+](=O)[O-])c1 (stereo not shown) [0235A]	30.6
CCOC(=O)C1=C(C)NC(C)=C(C(=O)OC)C1c1cccc([N+](=O)[O-])c1 (stereo not shown) [Nitrendipine, reference compound]	34.5

---

experiment: in vivo; settings: mouse, iv
property_label: LD50 at 168 h

> print(dat)
                                   compound  property.label          val
1  COC(=O)C1=C(C)NC(C)=C(C(C)=NOCc2ccccc2)C1c1cccc([N+](=O)[O-])c1 (stereo not shown) [0247B]   LD50 at 168 h   28.9 mg/kg
2  C=CCON=C(C)C1=C(C)NC(C)=C(C(=O)OC)C1c1cccc([N+](=O)[O-])c1 (stereo not shown) [0245B]   LD50 at 168 h   35.4 mg/kg
3  CCOCCON=C(COC)C1=C(C)NC(C)=C(C(=O)OC)C1c1cccc([N+](=O)[O-])c1 (stereo not shown) [0286C]   LD50 at 168 h  > 160 mg/kg
4  CCOCCON=C(C)C1=C(C)NC(C)=C(C(=O)OC)C1c1cccc([N+](=O)[O-])c1 (stereo not shown) [0254B]   LD50 at 168 h     35 mg/kg

---

system: taenia coli of guinea pigs, depolarized, stimulated with CaCl2; test: Antagonistic activity to calcium in the taenia coli of guinea pigs (in vitro); format: cell-based, Hartley albino guinea pigs; settings: Cavia porcellus; taenia coli, CaCl2 10^-3 M, ten minutes contact; from maximum percentage of inhibition (for 0265B, 0246B, 0247B, 0270B, 0224A independent of time of appearance); read-out: Ca--antagonistic activity in vitro ED50
property_label: IC50 (nM)

> print(dat)
                                   molecule                             tested.system  val
1  CCOCCON=C(C)C1=C(C)NC(C)=C(C(=O)OC)C1c1cccc([N+](=O)[O-])c1 (centres unmarked) [0254B]  taenia coli of guinea pigs, depolarized, stimulated with CaCl2  5.9
2  C=CCON=C(C)C1=C(C)NC(C)=C(C(=O)OC)C1c1cccc([N+](=O)[O-])c1 (centres unmarked) [0245B]  taenia coli of guinea pigs, depolarized, stimulated with CaCl2  4.7
3  COC(=O)C1=C(C)NC(C)=C(C(C)=NOCCN2CCCCC2)C1c1cccc([N+](=O)[O-])c1 (centres unmarked) [0276B]  taenia coli of guinea pigs, depolarized, stimulated with CaCl2  220
4  CCOCCON=C(COC)C1=C(C)NC(C)=C(C(=O)OC)C1c1cccc([N+](=O)[O-])c1 (centres unmarked) [0286C]  taenia coli of guinea pigs, depolarized, stimulated with CaCl2  370
5  COC(=O)C1=C(C)NC(C)=C(C(C)=NOCCN(C)C)C1c1cccc([N+](=O)[O-])c1 (centres unmarked) [0274B]  taenia coli of guinea pigs, depolarized, stimulated with CaCl2  510
6  COC(=O)C1=C(C)NC(C)=C(C(C)=NOCCN(C)Cc2ccccc2)C1c1cccc([N+](=O)[O-])c1 (centres unmarked) [0224A]  taenia coli of guinea pigs, depolarized, stimulated with CaCl2   18
7  COC(=O)C1=C(C)NC(C)=C(C(C)=NOCc2ccccc2)C1c1cccc([N+](=O)[O-])c1 (centres unmarked) [0247B]  taenia coli of guinea pigs, depolarized, stimulated with CaCl2  4.8
8  CCOC(=O)CON=C(C)C1=C(C)NC(C)=C(C(=O)OC)C1c1cccc([N+](=O)[O-])c1 (centres unmarked) [0234A]  taenia coli of guinea pigs, depolarized, stimulated with CaCl2   29

---

Form field: LD50 at 168 h (one value per entry).
assay: in vivo; conditions: mouse, iv
property_label: LD50 at 168 h (mg/kg)

> print(dat)
                                   compound  property.label   val
1  COC(=O)C1=C(C)NC(C)=C(C(C)=NOC2CCCC2)C1c1cccc([N+](=O)[O-])c1 (centres unmarked) [0270B]   LD50 at 168 h  70.3
2  COC(=O)C1=C(C)NC(C)=C(C(C)=NOCCN(C)C)C1c1cccc([N+](=O)[O-])c1 (centres unmarked) [0274B]   LD50 at 168 h  38.3
3  CON=C(C)C1=C(C)NC(C)=C(C(=O)OC)C1c1cccc([N+](=O)[O-])c1 (centres unmarked) [0251A]   LD50 at 168 h  27.3
4  COC(=O)C1=C(C)NC(C)=C(C(C)=NO)C1c1cccc([N+](=O)[O-])c1 (centres unmarked) [0227A]   LD50 at 168 h  15.2
5  CCOC(=O)CON=C(C)C1=C(C)NC(C)=C(C(=O)OC)C1c1cccc([N+](=O)[O-])c1 (centres unmarked) [0234A]   LD50 at 168 h  17.3
